Reported Pf_120h_%Growth_Rep2 values for the following compounds.
Test system: P. falciparum 3D7 parasites
experiment: P. falciparum growth inhibition assay, 2-cycle (120 h treatment), delayed-death screen and dose-response
Type: cell-based, Plasmodium falciparum
details: library screen at 2 μg/mL, 120 h, % growth, replicate 2
measure: Pf_120h_%Growth_Rep2 (%)

| compound | measure | valueObserved |
| --- | --- | --- |
| CC[C@H]1OC(=O)[C@H](C)[C@@H](O[C@H]2C[C@@](C)(OC)[C@@H](O)[C@H](C)O2)[C@H](C)[C@@H](O[C@@H]2O[C@H](C)C[C@H](N(C)C)[C@H]2O)[C@](C)(O)C[C@@H](C)C(=O)[C@H](C)[C@@H](O)[C@H]1C | Pf_120h_%Growth_Rep2 | 47.52 |
| C=C1NC(=O)c2nc(oc2C)C(=C)NC(=O)[C@H](C(C)(C)O)NC(=O)C(=C)NC(=O)c2nc(oc2C)/C(=C/C)NC(=O)[C@H]([C@@H](C)O)NC(=O)c2csc(n2)-c2ccc(C(N)=O)nc2-c2coc(n2)C(=C)NC1=O | Pf_120h_%Growth_Rep2 | 98.89 |
| Cc1c2c(c(O)c3c(O)ccc(Cl)c13)C(=O)C1(O)C(O)=C(C(N)=O)C(=O)C(N(C)C)C1C2.Cl (stereo not drawn) | Pf_120h_%Growth_Rep2 | 115.61 |

* * *

Test system: T. gondii RH strain (RH-Tub-eYFP) tachyzoites
experiment: microbe, parasite or virus in culture
Assay type: cell-based, Toxoplasma gondii
details: T. gondii, 72 h, parasite screen at 2 μg/mL, % growth, replicate 1
Where a SMILES comes first, the peptide text is derived from it. Bridges are numbered along the chain shown (N, C = ends). The star is where a group is joined. X2 = CCCCCCCCCCCC(O)CC(=O)*
The molecules listed here are annotated with their Tg_72h_%Growth_Rep1.
measure: Tg_72h_%Growth_Rep1 (%)

| molecule | targetEntity | measure | resultUnit | valueObserved |
| --- | --- | --- | --- | --- |
| C[C@@H]1C[C@H]2CC[C@H](O2)[C@H](C)C(=O)O[C@@H](C)C[C@@H]2CC[C@@H](O2)[C@@H](C)C(=O)O[C@H](C)C[C@H]2CC[C@@H](O2)[C@H](C)C(=O)O[C@@H](C)C[C@@H]2CC[C@@H](O2)[C@@H](C)C(=O)O1 | T. gondii RH strain (RH-Tub-eYFP) tachyzoites | Tg_72h_%Growth_Rep1 | % | 4.95 |
| Cc1cc(O)c(C)c(O)c1C(=O)O | T. gondii RH strain (RH-Tub-eYFP) tachyzoites | Tg_72h_%Growth_Rep1 | % | 153.94 |
| Cc1cc(O)cc(O)c1C(=O)O | T. gondii RH strain (RH-Tub-eYFP) tachyzoites | Tg_72h_%Growth_Rep1 | % | 114.94 |
| COC1=CC(=O)c2c(n(C)c3occc3c2=O)C1=O | T. gondii RH strain (RH-Tub-eYFP) tachyzoites | Tg_72h_%Growth_Rep1 | % | 248.99 |
| CN(C)[C@@H]1C(O)=C(C(N)=O)C(=O)[C@@]2(O)C(O)=C3C(=O)c4c(O)cccc4[C@@](C)(O)[C@H]3[C@H](O)[C@@H]12 | T. gondii RH strain (RH-Tub-eYFP) tachyzoites | Tg_72h_%Growth_Rep1 | % | 105.05 |
| CSc1cc(=O)n2c3ccccc3c3ccnc1c32 | T. gondii RH strain (RH-Tub-eYFP) tachyzoites | Tg_72h_%Growth_Rep1 | % | 88.90 |
| CO[C@@]12[C@H](COC(N)=O)C3=C(C(=O)C(C)=C(N)C3=O)N1C[C@@H]1N[C@@H]12 | T. gondii RH strain (RH-Tub-eYFP) tachyzoites | Tg_72h_%Growth_Rep1 | % | 127.95 |
| CCCCCCCCCCCC(O)CC(=O)NC(CC(C)C)C(=O)NC(CCC(=O)O)C(=O)NC1C(=O)NC(C(C)C)C(=O)NC(CC(C)C)C(=O)NC(CO)C(=O)NC(CC(C)C)C(=O)NC(CC(C)C)C(=O)NC(CO)C(=O)NC(C(C)C)C(=O)OC1C (centres unmarked) [BIA-O1431] (X2-LETVLSLLSV; ester 3-C; configuration not given here) | T. gondii RH strain (RH-Tub-eYFP) tachyzoites | Tg_72h_%Growth_Rep1 | % | 138.54 |
| COc1ccc2c(c1OC)C[N+]1(C)CCc3cc4c(cc3C1C2)OCO4.[I-] (centres unmarked) | T. gondii RH strain (RH-Tub-eYFP) tachyzoites | Tg_72h_%Growth_Rep1 | % | 93.48 |
| CC(=O)c1c(O)cc(O)cc1O | T. gondii RH strain (RH-Tub-eYFP) tachyzoites | Tg_72h_%Growth_Rep1 | % | 125.07 |
| CN(C)[C@@H]1C(=O)C(C(=O)NCN2CCN(CCO)CC2)=C(O)[C@@]2(O)C(=O)C3=C(O)c4c(O)cccc4[C@@](C)(O)[C@H]3C[C@@H]12 | T. gondii RH strain (RH-Tub-eYFP) tachyzoites | Tg_72h_%Growth_Rep1 | % | 118.64 |
| CCC1OC2(CCC1C)CC1CC(CC=C(C)CC(C)C=CC=C3COC4C(=NO)C(C)=CC(C(=O)O1)C34O)O2 (centres unmarked) | T. gondii RH strain (RH-Tub-eYFP) tachyzoites | Tg_72h_%Growth_Rep1 | % | 83.72 |
| CC=C(C)c1c(Cl)c(OC)c(C)c2c1Oc1c(Cl)c(O)c(Cl)c(C)c1C(=O)O2 | T. gondii RH strain (RH-Tub-eYFP) tachyzoites | Tg_72h_%Growth_Rep1 | % | 96.79 |
| CCC1OC2(CCC1C)CC1CC(CC=C(C)CC(C)C=CC=C3COC4C(O)C(C)=CC(C(=O)O1)C34O)O2 (centres unmarked) | T. gondii RH strain (RH-Tub-eYFP) tachyzoites | Tg_72h_%Growth_Rep1 | % | 117.80 |

* * *

Test system: P. falciparum 3D7 parasites
experiment: P. falciparum growth inhibition assay, 2-cycle (120 h treatment), delayed-death screen and dose-response
Format: cell-based, Plasmodium falciparum
details: Plasmodium falciparum, 3D7; P. falciparum, 120 h, screen at 2 μg/mL, replicate 2; read-out: Pf_120h_%Growth_Rep2
In this section we review reported activity at 2 µg/mL values for a set of molecules.

| molecule | targetEntity | activity at 2 µg/mL |
| --- | --- | --- |
| COc1c(C[C@@H](C)OC(=O)Oc2ccc(O)cc2)c2c3c(C[C@@H](C)OC(=O)c4ccccc4)c(OC)c(=O)c4c(O)cc(OC)c(c5c(OC)cc(O)c(c1=O)c52)c43 | P. falciparum 3D7 parasites | 9.44% |
| CCCCCCCCCCC[C@@H](C[C@@H]1OC(=O)[C@H]1CCCCCC)OC(=O)[C@H](CC(C)C)NC=O [Tetrahydrolipstatin] | P. falciparum 3D7 parasites | 93.3% |
| CCCCCCCCCCCCCCCC(=O)OC[C@@H](NC(=O)C(Cl)Cl)[C@H](O)c1ccc([N+](=O)[O-])cc1 [Chloramphenicol palmitate] | P. falciparum 3D7 parasites | 90.8% |
| COC(=O)C1=C2Nc3ccccc3[C@@]23CCN2C[C@]4(C[C@@H]5C[C@]67CCC[C@H]6CCN6CC[C@@]8(c9cccc(OC)c9N(C4)[C@@]58O)[C@@H]67)[C@@H]4OCC[C@]4(C1)[C@H]23 | P. falciparum 3D7 parasites | 96.3% |
| C[C@H]1CCCC(=O)CCC/C=C/c2cc(O)cc(O)c2C(=O)O1 | P. falciparum 3D7 parasites | 64.3% |
| C/C=C/C/C=C/CCC(=O)[C@H]1O[C@H]1C(N)=O | P. falciparum 3D7 parasites | 85.1% |

* * *

Test system: P. falciparum 3D7 parasites
experiment: P. falciparum growth inhibition assay, 2-cycle (120 h treatment), delayed-death screen and dose-response
Type: cell-based, Plasmodium falciparum
details: Plasmodium falciparum, 3D7; P. falciparum, 120 h, screen at 2 μg/mL, replicate 2; read-out: Pf_120h_%Growth_Rep2

| compound | targetEntity | activity at 2 µg/mL [%] |
| --- | --- | --- |
| CC[C@H]1OC(=O)C[C@@H](O)[C@H](C)[C@@H](O[C@@H]2O[C@H](C)[C@@H](O)[C@H](N(C)C)[C@H]2O)[C@@H](CCN2C[C@H](C)C[C@H](C)C2)C[C@@H](C)C(=O)/C=C/C(C)=C/[C@@H]1CO[C@@H]1O[C@H](C)[C@@H](O)[C@@H](OC)[C@H]1OC [Tilmicosin, reference compound] | P. falciparum 3D7 parasites | 6.63 |
| CS(=O)(=O)c1ccc([C@@H](O)[C@@H](CO)NC(=O)C(Cl)Cl)cc1 [Thiamphenicol, reference compound] | P. falciparum 3D7 parasites | 12.3 |
| C[C@@H]1C[C@H](C)C[C@H](C)[C@@H](O)CC(=O)O[C@H]([C@@H]2CCC[C@H]2C(=O)O)C/C=C/C=C(/C#N)[C@H](O)[C@@H](C)C1 | P. falciparum 3D7 parasites | 5.57 |
| CN(C)[C@@H]1C(O)=C(C(N)=O)C(=O)[C@@]2(O)C(O)=C3C(=O)c4c(O)cccc4[C@@](C)(O)[C@H]3C[C@@H]12 | P. falciparum 3D7 parasites | 73.9 |
| CC[C@H]1OC(=O)C[C@@H](O)[C@H](C)[C@@H](O[C@@H]2O[C@H](C)[C@@H](O)[C@H](N(C)C)[C@H]2O)[C@@H](CCN2CCCCC2)C[C@@H](C)C(=O)/C=C/C(C)=C/[C@@H]1CN1CCCCC1 | P. falciparum 3D7 parasites | 11.7 |

Values from paper PMC12396409
